# Test system: JAK2(JH1domain-catalytic);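 note: KINOMEscan kinase panel screen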
# Condition Description: concentration: 1 μM, replicates: in singlicate; n = 1
Listed molecules paired with reported %Inh
Readout: %Inh (%)

INSERT INTO results (molecule, readout, endpoint_result) VALUES
  ('O=c1cc(N2CCOCC2)nc2n(Cc3cccc(Cl)c3Cl)ccn12 [GSK2286295]', '%Inh', 0),
  ('Cc1cccc(-c2nc(Nc3ccncc3)c3ccccc3n2)n1 [GW855857]', '%Inh', 0),
  ('COc1cc2ncn(-c3cc(OCC4CCCO4)c(C(N)=O)s3)c2cc1OC (stereo not drawn) [GSK204607]', '%Inh', 1),
  ('Cc1cc(N2Cc3ccccc3C2)nc(Nc2ccc(S(=O)(=O)N3CCOCC3)cc2)n1.Cl [GSK1669917]', '%Inh', 0),
  ('Cc1c(O)cccc1Nc1ccnc2ccc(C(F)(F)F)cc12.Cl [GW466413]', '%Inh', 6),
  ('CN(C)CCN(C)C(=O)c1cc(-c2ccncc2)c(-c2ccc(Cl)c(O)c2)o1.Cl.Cl [SB-710397]', '%Inh', 49),
  ('Fc1cc(Cl)ccc1Nc1ccnc2cc(-c3ccc(CN4CCCCC4)o3)ccc12 [GW560116]', '%Inh', 24),
  ('CC1=C(C(=O)Nc2cc3cn[nH]c3cc2F)C(c2ccc(C(F)(F)F)cc2)CC(=O)N1 (stereo not drawn) [GSK429286]', '%Inh', 62),
  ('COc1ccc(CNC(=O)NC2CCN(c3ccnc(Nc4cc(OC)c(OC)c(OC)c4)n3)C2)cc1 (stereo not drawn) [GSK1379748]', '%Inh', 87);
